Counter-ions that a name gives are not always drawn.
PROPERTY_MEASURED: melting point

Provide reported melting point for each item, in the same order as listed.
1. COc1cc(OC)c2c(=O)[nH]c(-c3ccc(NC(=O)CO)cc3)nc2c1 [Example 60]
2. O=c1[nH]c(-c2ccc(N(CCO)CCO)cc2)nc2ccccc12 [Example 40]
3. COc1cc(OC)c2c(=O)[nH]c(-c3ccc(CN4CCN(C)CC4)cc3)nc2c1 (as salt: hydrochloride) [Example 54]
4. COc1cc(OC)c2c(=O)[nH]c(-c3cc(C)c(OCCN4CCOCC4)c(C)c3)cc2n1 [Example 45]

1. 318 to 319 °C
2. 228 to 230 °C
3. 275 to 277 °C
4. 212.5 to 212.9 °C
